- target.entity: T1, 重组人CD40-his蛋白 (human, UniProt P25942 21-193)
- T1 construct: extracellular domain; Recombinant protein; also called 人CD40(ECD)-his; huCD40-his; not shown: his tag
- experimental.protocol: BLI (Fortebio Blitz), antibody on AMC sensor, huCD40-his 6.25-200 nM
assay.readout: kon

## Task Given 嵌合抗体C42 (antibody, human IgG1, kappa, V domains shown, Mouse-human chimeric IgG1/kappa expressed in Expi-293 cells; also called 42Chimeric; 抗体42D11-8的嵌合抗体) VH: QVQLKQSGPGLVQPSQSLSITCTVSGFSLTSYGVHWVRQSPGKGLEWLGMIWSGGSTDYNSAFISRLSISKDNFKSQVFFKMNSLQADDTAIYYCARVGGDYWGQGTTVTVSS VL: DIVITQTPLSLPVSLGDPASISCRSSQSLVHSRGNTYLHWFLQKPGQSPKLLIYKVSNRFSGVPDRFSGSGSGTDFTLRISRLEAEDLGVYFCFQTTHVPWTFGGGTKLEIKR , state its recorded kon.
## Result 389000 M⁻¹ s⁻¹
